run.description: Lipophilicity, log P of the compound
Format: physicochemical
protocol.conditions: octanol/water; read-out: logP
# logP per entry
measured.attribute: logP

smiles.str | measured.attribute | result.number
C=C(c1cc(OC)c(OC)c(OC)c1)c1ccc(OC)cc1/C=C/C(=O)NO | logP | 2.13
C=C(c1ccc(OC)c(/C=C/C(=O)NO)c1)c1cc(OC)c(OC)c(OC)c1 | logP | 2.93

* * *

Test system: MIA PaCa-2
run.description: Antiproliferative activity against human MIAPaCa2 cells after 72 hrs by MTS assay
Type: functional
protocol.conditions: Homo sapiens, MIA PaCa-2, 72 h
# GI50 per entry

smiles.str | GI50
COc1ccc(Cn2ccc3ccc(C(=O)NO)cc32)cc1 | > 20000 nM
C=C(c1cc(OC)c(OC)c(OC)c1)c1ccc(OC)cc1/C=C/C(=O)NO | 18 nM
C=C(c1ccc(OC)c(/C=C/C(=O)NO)c1)c1cc(OC)c(OC)c(OC)c1 | 5.1 nM
C=C(c1ccc(OC)c(O)c1)c1cc(OC)c(OC)c(OC)c1 | 10 nM
